target_entity: wt MPER peptide (HIV-1)
attribute_measured: pKd
# pKd = -log10(concentration in molar units)

1) 2F5 variant r4W (antibody, V domains shown) VH: RITLKESGPPLVKPTQTLTLTCSFSGFSLSDFGVGVGWIRQPPGKALEWLAIIYSDDDKRYSPSLNTRLTITKDTSKNQVVLVMTRVSPVDTATYFCAHRRGPLFGWARGPVNAMDVWGQGITVTISS VL: ALQLTQSPSSLSASVGDRITITCRASQGVTSALAWYRQKPGSPPQLLIYDASSLESGVPSRFSGSGSGTEFTLTISTLRPEDFATYYCQQLHFYPHTFGGGTRVDVR : 7.10
2) 2F5 variant e2W (antibody, V domains shown) VH: RITLKESGPPLVKPTQTLTLTCSFSGFSLSDFGVGVGWIRQPPGKALEWLAIIYSDDDKRYSPSLNTRLTITKDTSKNQVVLVMTRVSPVDTATYFCAHRRGPTTGLFGWGPIARGPVNAMDVWGQGITVTISS VL: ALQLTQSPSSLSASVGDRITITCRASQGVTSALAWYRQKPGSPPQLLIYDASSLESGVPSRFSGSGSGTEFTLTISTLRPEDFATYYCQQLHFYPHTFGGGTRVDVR : 6.88

Next, consider the following binder.
# return recorded pKd for entry 2F5 variant r4W2a (antibody, V domains shown) VH: RITLKESGPPLVKPTQTLTLTCSFSGFSLSDFGVGVGWIRQPPGKALEWLAIIYSDDDKRYSPSLNTRLTITKDTSKNQVVLVMTRVSPVDTATYFCAHRRGPLFGWWRGPVNAMDVWGQGITVTISS VL: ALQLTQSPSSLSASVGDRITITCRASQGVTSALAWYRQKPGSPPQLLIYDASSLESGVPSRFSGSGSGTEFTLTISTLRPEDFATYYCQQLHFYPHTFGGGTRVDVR
8.59
